Catalogue of molecules with associated Affinity PBR, %
molecular target: peripheral benzodiazepine receptors (PBR) (Homo sapiens, UniProt P30536); assay: Affinity to peripheral benzodiazepine receptors; type: binding; conditions: 1×10^−6 mol/L
Sequence (P30536 whole entry, species assumed): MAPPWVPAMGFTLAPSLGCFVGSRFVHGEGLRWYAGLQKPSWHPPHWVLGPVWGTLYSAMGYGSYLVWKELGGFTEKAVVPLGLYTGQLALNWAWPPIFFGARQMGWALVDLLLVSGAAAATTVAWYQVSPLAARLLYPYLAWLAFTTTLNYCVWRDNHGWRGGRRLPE

[
  {
    "molecule": "CCCCOC1N=C(c2ccccc2F)c2cc(Br)ccc2NC1=O (stereo not drawn) [Compound 3]",
    "targetOrTestSystem": "peripheral benzodiazepine receptors (PBR) (Homo sapiens, UniProt P30536)",
    "Affinity PBR, % (%)": 8
  },
  {
    "molecule": "CCOC1N=C(c2ccccc2)c2cc(OC(F)(F)F)ccc2NC1=O (stereo not drawn) [Compound 27]",
    "targetOrTestSystem": "peripheral benzodiazepine receptors (PBR) (Homo sapiens, UniProt P30536)",
    "Affinity PBR, % (%)": 16
  },
  {
    "molecule": "CCOC1N=C(c2ccccc2Cl)c2cc([N+](=O)[O-])ccc2NC1=O (stereo not drawn) [Compound 53]",
    "targetOrTestSystem": "peripheral benzodiazepine receptors (PBR) (Homo sapiens, UniProt P30536)",
    "Affinity PBR, % (%)": 15
  },
  {
    "molecule": "O=C1Nc2ccc(Br)cc2C(c2ccccc2F)=NC1OCC1CC1 (stereo not drawn) [Compound 6]",
    "targetOrTestSystem": "peripheral benzodiazepine receptors (PBR) (Homo sapiens, UniProt P30536)",
    "Affinity PBR, % (%)": 15
  },
  {
    "molecule": "COCCOC1N=C(c2ccccc2F)c2cc(Br)ccc2NC1=O (stereo not drawn) [Compound 5]",
    "targetOrTestSystem": "peripheral benzodiazepine receptors (PBR) (Homo sapiens, UniProt P30536)",
    "Affinity PBR, % (%)": 10
  },
  {
    "molecule": "O=C1Nc2ccc(Cl)cc2C(c2ccccc2)=NC1OCC1CC1 (stereo not drawn) [Compound 17]",
    "targetOrTestSystem": "peripheral benzodiazepine receptors (PBR) (Homo sapiens, UniProt P30536)",
    "Affinity PBR, % (%)": 14
  },
  {
    "molecule": "O=C1Nc2ccc(Br)cc2C(c2ccccc2F)=NC1OCCO (stereo not drawn) [Compound 4]",
    "targetOrTestSystem": "peripheral benzodiazepine receptors (PBR) (Homo sapiens, UniProt P30536)",
    "Affinity PBR, % (%)": 8
  },
  {
    "molecule": "COCCOC1N=C(c2ccccc2)c2cc(Cl)ccc2NC1=O (stereo not drawn) [Compound 16]",
    "targetOrTestSystem": "peripheral benzodiazepine receptors (PBR) (Homo sapiens, UniProt P30536)",
    "Affinity PBR, % (%)": 15
  },
  {
    "molecule": "O=C1Nc2ccc(OC(F)(F)F)cc2C(c2ccccc2)=NC1OCCO (stereo not drawn) [Compound 30]",
    "targetOrTestSystem": "peripheral benzodiazepine receptors (PBR) (Homo sapiens, UniProt P30536)",
    "Affinity PBR, % (%)": 16
  }
]
